Assay: Parallel artificial membrane permeability assay for the blood–brain barrier (PAMPA-BBB)
Type: in vitro ADME
Details: PAMPA, pH 7.4; read-out: log Pe PAMPA-BBB (converted)
Experimental: The test solutions were prepared with dimethyl sulfoxide (DMSO) at the concentration of 10.0 mM. […] After the incubation the PAMPA plates were separated and the compound concentrations in the donor (CD(t)) and acceptor (CA(t)) solutions, as well as in the donor solution at the zero time point (CD(0)) were determined by UHPLC-DAD. […]
PARAMETER_MEASURED: Papp at 4 h, 100 µM (×10⁻⁶ cm/s)
Dear colleague, please return just the value in ×10⁻⁶ cm/s, with no unit written.

What value of Papp at 4 h, 100 µM has been reported for the following molecule? O=C(/C=C/CCc1ccc(O)cc1)CCc1ccc(O)cc1 [platyphyllenone (5), platyphyllenone]
5.75

====

Test: Parallel artificial membrane permeability assay for the gastrointestinal tract (PAMPA-GI)
Assay type: in vitro ADME
Conditions: PAMPA; read-out: log Pe PAMPA-GI (converted)
# Papp at 4 h, 100 µM annotations
The reply should contain only the number, in ×10⁻⁶ cm/s.

1. O=C(/C=C/CCc1ccc(O)cc1)CCc1ccc(O)cc1 [platyphyllenone (5), platyphyllenone]; 12

Then this compound:
Find the recorded Papp at 4 h, 100 µM belonging to O=C1CCc2ccc(O)c(c2)-c2cc(ccc2O)C[C@H](O)[C@H](O)[C@H]1O [carpinontriol B (9), carpinontriol B] and report it.
3.24
